// protein stability index lookup, one value per entry
B1: PRAME (parent)
chain: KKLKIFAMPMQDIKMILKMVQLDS

variants of: B1; test: protein stability index of a GFP-peptide fusion (GPS, HEK-293T) (PSI 1-6); higher = more stable; settings: c terminus: a fixed tail appended;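 note: lentivirally expressed fusions sorted by FACS into six bins by GFP to DsRed ratio, PSI derived from sequencing read proportions per bin multiplied by bin number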
Simply state the number, no unit and no words.

Illustrative cases are given below, each with its answer.
VARIANT_ANNOTATION | protein stability index
P9T | 4.36
V20Y | 2.21
V20R | 2.37
K1V | 2.08
S24H | 2.91
M15R | 2.25
K1Q | 2.55
D12E | 2.5

Problem: Can you share its protein stability index? I mean this variant: K1N
Solution: 3.99

Problem: Can you share its protein stability index? I mean this variant: L17V
Solution: 2.64

Problem: Can you share its protein stability index? I mean this variant: A7R
Solution: 2.61
